Each item that follows carries a reported melting point.

The following compounds have reported results that may help.
CCCCCCCCCCCc1ccc(F)c(-c2nc(-c3c(F)cccc3F)nn2C)c1 :: 70 to 73 °C
O=C1c2cccc(OCc3ccccc3)c2C(=O)c2c(Cl)ccc(Cl)c21 :: 122 to 126 °C
CN(C)C(=O)c1c(-c2ccc3ccccc3c2)ccc2ccccc12 :: 168 to 169 °C
C[C@H](NC(=O)OCc1ccccc1)C(=O)N[C@@H](C)C(=O)Nc1ccccc1 :: 219 to 221 °C
c1ccc2c3cncc-3cncc2c1 :: 220 to 221 °C
C(=C(c1ccccc1)c1ccccc1)c1ccc(N(c2ccccc2)c2ccc3c4c(cccc24)CC3)cc1 :: 189 to 190 °C
CC(=O)Nc1nc2c(Oc3cc(-c4ccc(C(F)(F)F)cc4NC(C)=O)ncn3)cccc2s1 :: 259 to 261 °C
CSCC(=O)[C@H](Cc1ccccc1)NC(=O)[C@H](CC(C)C)NC(=O)OCc1ccccc1 :: 81 to 91 °C

The value of melting point measured for the compound CSc1n[nH]c(=O)n1C turned out to be 97 °C

Entry O=C(O)CCCc1cc2nc(Cl)ccc2n1S(=O)(=O)c1ccc2c(c1)CCO2 ; melting point = 225 °C

====

Entries and their melting point

Reference set (3 entries):
CC(C)Cc1ccc2c(c1)C(=O)N(c1ccc3c(ccn3C)c1)C2 :: 193 to 194 °C
NS(=O)(=O)c1ccc(NC(=O)[C@@H]2CCCN2C(=O)OCc2ccccc2)cc1 :: 165 to 166 °C
Fc1ccc(-c2nccc(Oc3cccc(C(F)(F)F)c3)n2)cc1 :: 52 °C

In plain terms, COc1cc(C(=O)N2CCC3(CC2)Cc2ccccc2O3)cc(OC)c1OC has a documented melting point of 148 to 150 °C

response.value for N#CC(Cl)CS(=O)(=O)c1ccc(OC(F)(F)C(Cl)Cl)cc1 (stereo unspecified) (field: melting point) = 109 °C

Query CCOC(=O)c1cn(CCc2cccc(C(F)(F)F)c2)c2cc(C3CC3)nn2c1=O yields melting point of 140 to 145 °C

The reported melting point of the compound CC(C)C[C@H](NC(=O)c1ccco1)C(=O)N[C@@H](C(C)C)[C@@H](O)c1c(-c2ccccc2)c1=O was 101 to 105 °C

GET /value?item= Cc1ccc(NC(=O)c2ccc(C#N)cc2)cc1NC(=O)c1ccc(O)cc1 &field=melting point returns 297 to 299 °C

The compound listed as COc1cc2c(cc1OC)Nc1nccn1C2 has a reported melting point of 215 to 217 °C

For Clc1ccc(-c2ccc(-c3ccccc3)s2)s1 the compound record lists melting point as 128 to 132 °C

Measured melting point of CC(CN(C)C)Oc1ccc(-c2n[nH]c3ncccc23)cc1 (stereo unspecified) : 130 to 132 °C

# melting point of CCCCCN(CCC12CC3CC(CC(C3)C1)C2)C(=O)NCCNc1ccncc1 = 134 °C

====

reported endpoint: melting point

// worked examples, melting point included
N#Cc1cc(F)c(N2C(=O)c3ccccc3C2=O)cc1O :: 247 °C
CC1(C)C(c2cccs2)=NN=C1c1cccs1 :: 153 to 156 °C
CN1CCC(OC(c2cccc(SCCNC(N)=O)c2)c2nc3ccccc3[nH]2)CC1 (centres undefined) :: 136 °C
CCOc1ccc2c(c1)n(C1CCCCC1)c(=O)n2S(=O)(=O)c1ccc(C(=O)Nc2nccs2)cc1OC :: 213 °C
CCOC(=O)c1ccc(Br)cc1COC(C)=O :: 51.5 to 52.5 °C

// sample CCSc1nc(-c2ccc(OC)cc2)c(-c2ccc(OC)cc2)s1 , its melting point was 73 to 75 °C

Noted for CCCOc1ccc(S(=O)(=O)N2CCN(C(C)=O)CC2)c(-c2nc3cc(N)c(N)cc3c(=O)[nH]2)c1 : its melting point reads 177 to 180 °C

Item: CCN(CC)c1ccc(C(F)(F)F)cc1NC(=O)c1ccncc1 | melting point: 78 to 80 °C

Consider Cc1cc(C)c(Nc2nc(C)ccc2S(=O)(=O)c2ccc(OCc3c(C)cccc3C)cc2)c(C)c1 . Its measured melting point is 136 to 138 °C

The measured values listed here are drawn from a melting point compilation (Tetko et al.; mined from patent text by program, amines drawn as free bases though some values may be those of a salt).
